molecular target: MsepCSP5 (Mythimna separata, UniProt A0A5H2NAD7); experiment: Fluorescence competitive binding assay with the probe 1-NPN; details: IC50, pH 5.0; displacement of 1-NPN from MsepCSP5
Sequence (A0A5H2NAD7 1-127): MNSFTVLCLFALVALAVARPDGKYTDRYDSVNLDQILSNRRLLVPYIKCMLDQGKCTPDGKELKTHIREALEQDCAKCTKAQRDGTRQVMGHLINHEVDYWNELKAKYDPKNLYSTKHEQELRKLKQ
Listed next: entries and their corresponding log10(IC50).
Remember, log10 of IC50, in µM.

Reference set (4 entries):
molecule="CCOC(C)=O [Ethylacetate]" system="MsepCSP5 (Mythimna separata, UniProt A0A5H2NAD7)" reading=0.95
molecule="CCCCCCCCCCCCCC [Tetradecane]" system="MsepCSP5 (Mythimna separata, UniProt A0A5H2NAD7)" reading=1.34
molecule="OC1CCCCC1 [Cyclohexanol]" system="MsepCSP5 (Mythimna separata, UniProt A0A5H2NAD7)" reading=1.85
molecule="CCC/C=C/C=O [Trans-2-hexenal]" system="MsepCSP5 (Mythimna separata, UniProt A0A5H2NAD7)" reading=1.64

query: Look up and report measured log10(IC50) for this entry: CC/C=C\CCO [Cis-3-hexen-1-ol]
result: 2.86
